Origin of measurements: patent US9951050B2

measured.on: DYRK1B (Homo sapiens)
Sequence (Q9Y463 whole entry): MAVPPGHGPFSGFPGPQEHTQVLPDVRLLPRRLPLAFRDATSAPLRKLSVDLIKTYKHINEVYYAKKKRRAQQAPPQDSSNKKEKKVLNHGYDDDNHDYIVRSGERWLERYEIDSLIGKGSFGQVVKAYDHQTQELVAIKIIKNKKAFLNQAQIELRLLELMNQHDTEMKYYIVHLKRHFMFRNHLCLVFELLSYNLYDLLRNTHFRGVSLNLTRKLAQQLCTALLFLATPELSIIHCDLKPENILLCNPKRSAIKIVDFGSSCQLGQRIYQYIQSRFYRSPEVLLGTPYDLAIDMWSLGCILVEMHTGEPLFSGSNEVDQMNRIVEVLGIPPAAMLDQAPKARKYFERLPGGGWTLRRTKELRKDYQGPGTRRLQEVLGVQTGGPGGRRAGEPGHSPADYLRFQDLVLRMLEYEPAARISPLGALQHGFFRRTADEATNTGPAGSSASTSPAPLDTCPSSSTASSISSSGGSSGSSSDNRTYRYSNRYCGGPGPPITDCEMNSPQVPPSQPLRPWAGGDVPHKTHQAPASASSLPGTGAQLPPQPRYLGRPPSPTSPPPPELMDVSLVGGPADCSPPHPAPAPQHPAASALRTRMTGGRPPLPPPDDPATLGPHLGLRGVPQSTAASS
result.type: IC50

In [3]: df
Out[3]:
                           item_smiles  test_result
0  FC(F)(F)c1ccc2[nH]c(Nc3ncccn3)nc2c1      54.8 nM
